Taken from ChEMBL document CHEMBL3997763.

# procedure_details: Cmax in Sprague-Dawley rat at 100 mg/kg, po administered as single dose by LC-MS/MS analysis
# Format: ADME, organism-based
# Parameters: dose 100 mg/kg, route oral
# condition_summary: in vivo
experimental_readout: Cmax (ng/mL)
Number in ng/mL, nothing else.

Ask | What value of Cmax has been recorded for this entry: "COc1ccc(-c2cc3cc(C(c4c[nH]c5ccccc45)c4c[nH]c5ccccc45)cc(C(C)(C)C)c3oc2=O)cc1OC"
Reply | 79

###

# procedure_details: Apparent MRT in Sprague-Dawley rat at 100 mg/kg, po administered as single dose by LC-MS/MS analysis
# Assay type: ADME, organism-based
# condition_summary: in vivo
experimental_readout: MRT (h)
Number in h, nothing else.

Ask | What value of MRT has been recorded for this entry: "COc1ccc(-c2cc3cc(C(c4c[nH]c5ccccc45)c4c[nH]c5ccccc45)cc(C(C)(C)C)c3oc2=O)cc1OC"
Reply | 4.46
